assay: M. tuberculosis growth inhibition, HTS (AID 449762);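 note: bacterial growth assessed after seven days of incubation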; details: M. tuberculosis H37Rv growth inhibition, 7H9 media; at 25 µM; stronger effect = higher value
In all, about 330,000 compounds went through this assay and about 1,900 (0.58%) were called active. Roughly 4% stayed inconclusive and do not appear here. These entries were drawn from the full list. Results with a measured potency or affinity are listed apart.
metric name: inhibition (%)
Could you give me the number in %? Just the number is fine.

The following compounds have reported results that may help.
O=C1N[C@@H](Cc2c[nH]c3ccccc23)COC(=O)[C@@H](Cc2ccc(F)cc2)C/C=C\C[C@H]1CC(=O)N(CCO)Cc1ccccc1 :: 4.64
Cc1ccc(-c2c(C(=O)N/N=C/c3ccc(OC(C)C)cc3)nnn2-c2nonc2N)cc1 :: 5.21
COc1ccccc1NC(=O)N1CCCC1C(=O)NCc1ccccc1Cl (stereo not given) :: 3.2
Cc1cnc(NC2=NCCC2)s1 :: 4.98

Q. Reported inhibition, compound CCc1ccccc1NC(=O)c1noc(C(C)C)c1[N+](=O)[O-] : ____
A. 2.17

Q. Recorded inhibition for Cc1ccc(NC(=O)c2noc(C(C)C)c2[N+](=O)[O-])cc1 , please?
A. 0.01

Q. What measured inhibition goes with Cc1noc(C)c1COC(=O)COc1ccc(C#N)cc1 ?
A. 6.51

Q. Need inhibition of Cc1cc(Cl)c(S(=O)(=O)Nc2ccc(S(=O)(=O)N3CCOCC3)cc2)cc1OCC(N)=O , thanks.
A. 5.99

Q. What does the record list as inhibition for CCc1nc2ccccc2c(C(=O)Nc2ccc(C)cc2)c1C ?
A. 4.44

Q. Dear colleague, I am looking for the recorded inhibition of the following compound: CSc1ccc(CCNS(=O)(=O)c2c(C)[nH]c(C)c2C(=O)N2CCCCC2)cc1
A. -2.39

Data credit: PubChem BioAssay AID449762
